# Test system: lasered (hypertensive) eyes of conscious cynomolgus monkeys
# assay.summary: Acute IOP Response in Lasered (Hypertensive) Eyes of Conscious Cynomolgus Monkeys
# Format: in vivo, cynomolgus monkey
# assay.conditions: topical, one 30 μL aliquot; 1 h; dose (R)-DOI 100 μg, α-methylserotonin 250 μg, 5-methoxy-α-methyltryptamine 300 μg, serotonin 250 μg
assay.readout: Percent IOP Reduction ± SEM, 1 hour after dose (%)

compound: NCCc1c[nH]c2ccc(O)cc12 [Serotonin, 5-hydroxytryptamine]
readout.unit: %
reported.value: 13.3

compound: COc1cc(C[C@@H](C)N)c(OC)cc1I [(R)-DOI]
readout.unit: %
reported.value: 11.0

compound: COc1ccc2[nH]cc(CC(C)N)c2c1 (stereo not shown)
readout.unit: %
reported.value: 21.6

compound: CC(N)Cc1c[nH]c2ccc(O)cc12 (stereo not shown)
readout.unit: %
reported.value: 14.2

====

# system.under.test: 5HT2 receptor (Rattus norvegicus, UniProt P14842)
# Sequence (P14842 whole entry): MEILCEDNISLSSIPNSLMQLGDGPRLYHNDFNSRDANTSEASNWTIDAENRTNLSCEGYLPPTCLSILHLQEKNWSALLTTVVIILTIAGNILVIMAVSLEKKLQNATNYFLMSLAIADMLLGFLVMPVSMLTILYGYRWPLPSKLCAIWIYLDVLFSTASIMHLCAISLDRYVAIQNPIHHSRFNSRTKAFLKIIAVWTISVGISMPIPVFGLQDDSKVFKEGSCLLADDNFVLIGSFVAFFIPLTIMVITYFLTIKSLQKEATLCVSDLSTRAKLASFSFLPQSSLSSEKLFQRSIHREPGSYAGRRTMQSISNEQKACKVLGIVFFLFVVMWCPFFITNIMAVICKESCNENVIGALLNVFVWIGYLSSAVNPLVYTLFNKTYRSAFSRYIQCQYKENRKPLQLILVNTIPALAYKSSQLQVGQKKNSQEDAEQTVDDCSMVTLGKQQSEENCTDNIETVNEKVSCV
# assay.summary: cell-based

molecule: COc1cc(C[C@@H](C)N)c(OC)cc1I [(R)-DOI]
readout.unit: nM
EC50: 277
